Just for reference, paper PMC7124378 is where these values come from.

Dear all, this message contains pKi results, target or system cathepsin H (Capra hircus).
// scale note: pKi = -log10(conc_M); give the bare number

These solved cases illustrate the format of a correct answer.
                                   compound  measured_result
0  NC(=O)N1N=C(c2ccccc2)CC1c1ccccc1 (centres unmarked)             3.72
1  NC(=O)N1N=C(c2ccccc2)CC1c1cccc([N+](=O)[O-])c1 (centres unmarked)             4.42
2  O=C(/C=C/c1cccc([N+](=O)[O-])c1)c1ccccc1             4.22

// pKi lookup, compound = O=C(/C=C/c1ccccc1Cl)c1ccccc1 , result: 3.96

// pKi lookup, compound = COc1ccccc1C1CC(c2ccccc2)=NN1C(N)=O (centres unmarked) , result: 4.40
